Answer each item with its documented Efficacy (%) (confirmatory screen).
- assay_system: CIB1 and αIIb interaction (CIB1-GST : F-αIIb peptide) (Homo sapiens, UniProt Q99828)
- Construct: made in house; host or cells: BL-21 plus RIL cells (E. coli)
- Sequence (Q99828 1-191): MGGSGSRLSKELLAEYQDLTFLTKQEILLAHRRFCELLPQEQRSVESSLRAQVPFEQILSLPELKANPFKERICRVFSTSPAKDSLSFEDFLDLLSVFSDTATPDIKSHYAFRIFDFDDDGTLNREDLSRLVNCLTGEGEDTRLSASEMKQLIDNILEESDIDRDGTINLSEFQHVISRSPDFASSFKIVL
- assay_details: FP assay, 1536-well qHTS format (primary and confirmatory screen)
- Format: binding
- condition_notes: confirmatory screen
Reply with just the number (in %).

query: Please report the measured Efficacy (%) (confirmatory screen) for `Cc1cc2c(C(C)C)c(O)c(O)c(C=O)c2c(O)c1-c1c(C)cc2c(C(C)C)c(O)c(O)c(C=O)c2c1O`
result: -70

query: Please report the measured Efficacy (%) (confirmatory screen) for `Cl.O=[N+]([O-])c1cccc(CNc2ccc(S(=O)(=O)Nc3nccs3)cc2)c1O`
result: -49

query: Please report the measured Efficacy (%) (confirmatory screen) for CCC(=O)NC(c1cccs1)c1cc(Br)c2cccnc2c1O (stereo not shown)
result: -56

query: Please report the measured Efficacy (%) (confirmatory screen) for `COc1cc(C=C2C(=O)Nc3ccccc32)cc(OC)c1O`
result: -81
